Target or system Cytochrome P450 2C9 (Homo sapiens); recorded quantity IC50.
One number for each entry, in µM.

Cc1nc2cc(OC[C@H](O)CN3CCN(CC(=O)Nc4cccc(-c5ccccc5)c4)CC3)ccc2s1	24

Which IC50 reading was recorded for the compound Cc1nc2cc(OC[C@H](O)CN3CCN(CC(=O)Nc4ccc(-c5ccccc5)cc4)CC3)ccc2s1 ?
30

Taken from ChEMBL document CHEMBL1148425.
